- subject-of-test: T1, human transferrin receptor (hTfR) (human, UniProt P02786 89-760)
- T1 construct: also called human TfR; TfR1
- assay-method-text: SPR, Biacore T200, hTfR captured by anti-His antibody on CM3 chip, pH 7.4
metric: pKd
In textbook form, pKd equals minus log to base ten of the concentration in mol/L.

AVXVXNYYXIKRYXC (not fully specified; MeF at 3; MeW at 5; Eva at 9; MeY at 14; cyclic: chloroacetylated N-terminal Ala 1 joined to Cys 15; linker PEG4c on C-terminus, As printed: A-V-MeF-V-MeW-N-Y-Y-Eva-I-K-R-Y-MeY-C, linker PEG4c) [894_0591 (SEQ ID No. 117)] :: 8.12

Endpoint output: pKd of AVXVXNYYIIKRYXC (not fully specified; MeF at 3; MeW at 5; MeF4COO at 14; cyclic: chloroacetylated N-terminal Ala 1 joined to Cys 15; linker PEG4c on C-terminus, As printed: A-V-MeF-V-MeW-N-Y-Y-I-I-K-R-Y-MeF4COO-C, linker PEG4c) [894_0592 (SEQ ID No. 118)] . Value?
8.95
